# assay system: T1, human TSLP recombinant protein (human, UniProt Q969D9 29-159, biotinylated in the blocking and cell-binding assays (sites not given))
# T1 construct: also called biotinylated human TSLP protein
# assay remarks: flow cytometry competition, biotin-human TSLP to Ba/F3-hTSLPR-IL7Rα cells
reported endpoint: pIC50
Lab note — pIC50 values are minus log10 of concentrations in M.

Value lookup for pIC50; key = Ab23 (antibody, V domains shown, Humanized; also called h39G5VHv2/h71G4VKv1; h39G5VHv2/h71G4VKv1 hIgG1) VH: QVQLVQSGAEVKKPGSSVKVSCKASGYSFISYWIHWVRQAPGQGLEWMGIIDPSDSDTSLNQKFQGRVTITADESTSTAYMELSSLRSEDTAVYYCARSLDGYYDYWGQGTLVTVSS VL: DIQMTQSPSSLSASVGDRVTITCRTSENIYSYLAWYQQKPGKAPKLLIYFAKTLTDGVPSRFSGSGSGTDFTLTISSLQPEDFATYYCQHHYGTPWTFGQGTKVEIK
9.48
